target_system: BTK (Homo sapiens, UniProt Q06187)
Sequence (Q06187 402-655 limits assumed): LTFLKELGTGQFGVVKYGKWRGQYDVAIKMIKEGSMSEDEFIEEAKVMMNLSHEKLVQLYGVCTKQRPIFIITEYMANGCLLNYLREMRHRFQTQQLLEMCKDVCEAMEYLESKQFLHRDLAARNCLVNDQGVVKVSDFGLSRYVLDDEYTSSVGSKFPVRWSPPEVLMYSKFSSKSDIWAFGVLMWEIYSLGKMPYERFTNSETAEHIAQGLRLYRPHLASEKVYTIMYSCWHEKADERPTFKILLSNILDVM
method_summary: biochemical
condition_label: read-out: BTK inhibition (%), 0.75 uM BTK, […] probe 3l, 15 min preincubation
Catalogue of inhibition at 10 µM readings, one per entry.
Kindly answer with a numeric value in %, unit omitted.

# input # query: inhibition at 10 µM of entry CC(C)(C)c1cc(C(C)(C)C)c(NC(=O)c2c[nH]c3ccccc3c2=O)cc1O
# output 49.8

# input Value lookup for inhibition at 10 µM; key = OC[C@@H](O)[C@@H](O)CO
# output 7.8

# input Find the recorded inhibition at 10 µM belonging to CC(C)C[C@H](NC(=O)CNC(=O)[C@H](Cc1ccc(O)cc1)NC(=O)[C@H](CO)NC(=O)[C@H](Cc1c[nH]c2ccccc12)NC(=O)[C@H](Cc1cnc[nH]1)NC(=O)[C@@H]1CCC(=O)N1)C(=O)N[C@@H](CCCN=C(N)N)C(=O)N1CCC[C@H]1C(=O)NCC(N)=O and report it.
# output -5.1

###

Each record here notes measured inhibition at 10 µM.
target_system: BTK (Homo sapiens, UniProt Q06187)
method_summary: biochemical
condition_label: read-out: BTK inhibition (%), 0.75 uM BTK, […] probe 3l, 15 min preincubation
Please reply with the bare figure in % and do not write the unit itself.

1. O=C(Cc1ccccc1)Nc1nnc(CCSCCc2nnc(NC(=O)Cc3ccccc3)s2)s1: 5.4
2. O=C(O)CCCc1c[nH]c2ccccc12: -12.5
3. NCCCC[C@@H]1NC(=O)[C@@H](Cc2ccc(O)cc2)NC(=O)[C@H](CC(=O)O)NC(=O)CNC(=O)[C@H](CCCN=C(N)N)NC1=O: -10
4. CCN1CCCC1CNC(=O)c1cc(S(=O)(=O)CC)c(N)cc1OC (stereo not drawn): 0.8
5. C/C=C1\[C@H]2C=C(C)C[C@]1(N)c1ccc(=O)[nH]c1C2: -24.7
6. O=C(O)c1cc2cccc([N+](=O)[O-])c2[nH]1: 0.8

# input Enter reported inhibition at 10 µM observed with BTK (Homo sapiens, UniProt Q06187) for N#Cc1c(O)c2c(-c3ccc(-c4ccccc4O)cc3)csc2[nH]c1=O
# output 51.7

# input Entry CCCCNc1ccc(C(=O)OCCN(C)C)cc1 , system BTK (Homo sapiens, UniProt Q06187): what inhibition at 10 µM was measured?
# output 10.9

# input Find the measured inhibition at 10 µM: item Nc1[nH]c(=O)ncc1F , target or system BTK (Homo sapiens, UniProt Q06187).
# output -6.2

###

target_system: BTK (Homo sapiens, UniProt Q06187)
method_summary: biochemical
condition_label: read-out: BTK inhibition (%), 0.75 uM BTK, […] probe 3l, 15 min preincubation
# if value of inhibition at 10 µM reaches 10%, tag 1; if it stays below, tag -1

Solved entries:
1. COCCn1c2c([n+](Cc3cnccn3)c1C)C(=O)c1ccccc1C2=O: -1
2. Cc1cc(C#N)cc(C)c1Oc1nc(Nc2ccc(C#N)cc2)nc(N)c1Br: 1
3. Cc1cc(C(=O)O)n[nH]1: -1
4. C=C[C@@H]1C[C@]1(NC(=O)[C@@H]1C[C@@H]2CN1C(=O)[C@H](C(C)(C)C)NC(=O)O[C@@H]1C[C@H]1CCCCCc1nc3ccc(OC)cc3nc1O2)C(=O)NS(=O)(=O)C1CC1: -1
5. C[C@@H](N)c1ccc(C(=O)Nc2ccnc3[nH]ccc23)cc1: -1
6. NC1(C(=O)N[C@@H](CCO)c2ccc(Cl)cc2)CCN(c2ncnc3[nH]ccc23)CC1: 1
7. NCc1ccc(S(N)(=O)=O)cc1: -1
8. COc1ccc(CC(=O)O)cc1OC: -1

Attention now turns to another entry.
# input Please check the record COc1ccc2c(c1)c(CC(=O)O)c(C)n2C(=O)c1ccc(Cl)cc1 and state if its inhibition at 10 µM is at or above 10%.
# output 1
